Some compounds, each annotated with its measured viability, T/C.
# Tested on: 354836-022-R-J1-PDC multicell spheroid viability;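 also: spheroids exposed to agents for seven days before the viability read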
# assayExplanation: Anticancer human tumor 354836-022-R-J1-PDC patient-derived head and neck squamous cell carcinoma cell line growth inhibition [PI3K]
# conditionsUsed: second compound 10 µM; first compound 0.1 µM; stronger effect = lower value

compound	viability, T/C
Cn1ncc(Cl)c1-c1cc(C(=O)NC(CN)Cc2cccc(F)c2)sc1Cl (stereo unspecified) + CC(Nc1ncnc2nc[nH]c12)c1cc2cccc(Cl)c2c(=O)n1-c1ccccc1	59.7%
C[C@@H](NC(=O)c1ncnc(N)c1Cl)c1ncc(C(=O)Nc2cc(C(F)(F)F)c(Cl)cn2)s1 + CC(Nc1ncnc2nc[nH]c12)c1cc2cccc(Cl)c2c(=O)n1-c1ccccc1	86%
C=CC(=O)N1CCN(c2nc(=O)n(-c3c(C)ccnc3C(C)C)c3nc(-c4c(O)cccc4F)c(F)cc23)C(C)C1 (stereo unspecified) + Cc1nc(NC(=O)N2CCCC2C(N)=O)sc1-c1ccnc(C(C)(C)C(F)(F)F)c1	36.5%
CC(C)NCC(C(=O)N1CCN(c2ncnc3c2C(C)CC3O)CC1)c1ccc(Cl)cc1 (stereo unspecified) + Cc1nc(NC(=O)N2CCCC2C(N)=O)sc1-c1ccnc(C(C)(C)C(F)(F)F)c1	32%
Cn1ncnc1[C@H]1c2n[nH]c(=O)c3cc(F)cc(c23)N[C@@H]1c1ccc(F)cc1 + CC(Nc1ncnc2nc[nH]c12)c1cc2cccc(Cl)c2c(=O)n1-c1ccccc1	65.2%
CC(C)NCC(C(=O)N1CCN(c2ncnc3c2C(C)CC3O)CC1)c1ccc(Cl)cc1 (stereo unspecified) + CC(Nc1ncnc2nc[nH]c12)c1cc2cccc(Cl)c2c(=O)n1-c1ccccc1	76.7%
